Numbers sourced from ChEMBL document CHEMBL3507680.

Assay method text: Human HepG2 cell viability assay in 384 well format
Type: toxicity, cell-based
Design: dose 125 nL, time 70.5 hour; concentration not given beside the values
Test settings: HepG2 cells, read-out: Inhibition
Measured cytotoxicity at 70.5 h values are reported for all entries that follow.
Use % as the unit, but write only the number.

Look over these answered cases.
COCCN1CCN(CC(O)c2cc(OC)ccc2OC)CC1 (configuration not stated) ... -6.61
Cc1cnccc1N1CCCN(C(=O)CCc2n[nH]c(C)c2C)CC1 ... 18.7
Cc1cc(N(Cc2ccccn2)C2CC2)n2nc(C(F)(F)F)nc2n1 ... -0.852

Given Cc1cc(C2CCCCN2C(=O)c2ccsc2)nc2nccn12 (configuration not stated) , respond with its cytotoxicity at 70.5 h.
6.22

For C[C@@H]1CN(CCC(=O)NCc2ccccc2Cl)C[C@@]1(O)C1CC1 , write its cytotoxicity at 70.5 h.
-2.59

For Cc1ccc(-c2cc(C(=O)N(C)Cc3noc4c3CCCC4)[nH]n2)s1 , write its cytotoxicity at 70.5 h.
21.6

Let me know recorded cytotoxicity at 70.5 h for CN(C)CCOCC1CN(Cc2ccccn2)Cc2nnn(C)c21 (configuration not stated) , thanks.
0.965

Hello, please tell me recorded cytotoxicity at 70.5 h for this one: Cn1ccnc1CN(Cc1ccccn1)Cc1ccccc1Cl
1.27

Note down cytotoxicity at 70.5 h recorded for CC1CCN(C)c2ccccc2N1C(=O)c1ccc(=O)n(C)c1 (configuration not stated)
-6.14

Query cytotoxicity at 70.5 h for CCS(=O)(=O)N1CC[C@@H]2[C@H](CC1)N(Cc1cccnc1)CCS2(=O)=O
-4.2

# return recorded cytotoxicity at 70.5 h for input O=C(C1CCOc2ccccc2C1)N1Cc2cnn(CCO)c2C1 (configuration not stated)
9.23

Tell us which cytotoxicity at 70.5 h value is on record for CCN1CCN(C(=O)c2cc(NC(=O)c3ccccc3)n(C)n2)CC1
-3.8

Entry CCN(C)S(=O)(=O)NCC1(c2ccccc2Br)CC1 needs its cytotoxicity at 70.5 h filled in; supply it.
4.86

Determine from records and report cytotoxicity at 70.5 h for CN1CC(=O)N(c2cccnc2)CC12CCN(C(=O)c1cccn1C)C2 (configuration not stated)
1.98

Supply measured cytotoxicity at 70.5 h of O=C1NCCCCC1NC(=O)C1(c2cccc(Cl)c2)CC1 (configuration not stated) in your reply.
-0.123

Supply measured cytotoxicity at 70.5 h of CCN1CCC(CC(=O)NCCc2nc(N)cc(O)n2)CC1 in your reply.
-2.8

Give recorded cytotoxicity at 70.5 h. CC(C)N1CCC2(CC1)CC(c1cccnc1)C(=O)N2 (configuration not stated)
-10.2

Note cytotoxicity at 70.5 h for the compound shown: CS(=O)(=O)NC[C@]12COC[C@H]1CN(C(=O)c1cnccn1)C2
19.5

Give recorded cytotoxicity at 70.5 h. O=C(Nc1cccc(CN2CCOC2=O)c1)N1CCOCC1
-3.32

Write down cytotoxicity at 70.5 h measured for item Clc1ccc(-c2nnc(CNCCn3cccn3)o2)c(Cl)c1
-6.39
